From: patent US20250250312A1

Biological target: receptor binding domain (RBD) of SARS-CoV-2 wildtype (2019-nCoV) (SARS-CoV-2), P0DTC2
observed.property: pKd
Reminder that pKd is minus the log10 of a molar concentration.

**Q:** Which measured pKd value corresponds to EEQAKTFKDKFDHEAEDKFYQDSGLGKGDFR (modifications not checked) [p6(K)8,18(D)12,22] ?
**A:** 5.00
